For each of the compounds below, state its Ki.
molecular target: Sodium-dependent serotonin transporter (Rattus norvegicus); experiment: Displacement of [3H]MADAM from SERT in rat brain cortex membrane; assay type: cell membranes
Sequence (P31652 whole entry): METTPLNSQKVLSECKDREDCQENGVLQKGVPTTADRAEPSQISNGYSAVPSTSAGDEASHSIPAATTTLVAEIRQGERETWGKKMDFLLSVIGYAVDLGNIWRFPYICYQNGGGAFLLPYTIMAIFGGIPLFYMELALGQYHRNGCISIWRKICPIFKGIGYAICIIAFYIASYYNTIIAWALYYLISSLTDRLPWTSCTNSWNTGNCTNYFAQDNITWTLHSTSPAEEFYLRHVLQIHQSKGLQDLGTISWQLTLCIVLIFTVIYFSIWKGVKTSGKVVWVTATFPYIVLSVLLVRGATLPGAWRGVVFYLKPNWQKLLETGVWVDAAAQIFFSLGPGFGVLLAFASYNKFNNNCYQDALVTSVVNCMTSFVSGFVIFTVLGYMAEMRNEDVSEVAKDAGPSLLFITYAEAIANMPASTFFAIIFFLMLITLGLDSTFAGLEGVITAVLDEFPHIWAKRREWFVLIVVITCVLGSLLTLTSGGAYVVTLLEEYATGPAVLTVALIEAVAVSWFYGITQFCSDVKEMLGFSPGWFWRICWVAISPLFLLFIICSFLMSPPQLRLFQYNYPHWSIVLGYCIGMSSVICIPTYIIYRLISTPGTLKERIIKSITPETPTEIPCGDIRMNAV

# count of solved cases: 2
chemical-structure | result
Cc1ccc(Sc2ccccc2CN(C)C)c(NC(=O)c2ccc([N+](=O)[O-])cc2)c1 | > 100 nM
CNCc1ccccc1Sc1ccc(C)cc1NC(=O)c1ccc(F)cc1 | > 500 nM

Lab note: next compound to report on.
get_value(item= CNCc1ccccc1Sc1ccc(C)cc1NCc1ccc(F)cc1 , readout=Ki) returns > 100 nM
